compound: CN(C)C(=O)N(C(=O)c1ccccc1)c1ccc(Cl)c(Cl)c1
unit.string: °C
bound.sign: =
melting point: 119
--
compound: C=Cc1ccc(CC)cc1
unit.string: °C
bound.sign: =
melting point: -49.7
--
compound: Nc1ccc2ccccc2c1N
unit.string: °C
bound.sign: =
melting point: 98.5
--
compound: CCOC(=O)Nc1ccc2cc3ccc4c(c3nc2c1)COC(=O)N4
unit.string: °C
bound.sign: =
melting point: 235
--
compound: CC(C)OC(=O)c1cc(C(=O)OC(C)C)cc([N+](=O)[O-])c1
unit.string: °C
bound.sign: =
melting point: 65
--
compound: Brc1cccc(Oc2ccccc2)c1
unit.string: °C
bound.sign: <
melting point: 20
--
compound: COC(=O)c1c(C)n[nH]c1C
unit.string: °C
bound.sign: =
melting point: 83
--
compound: N#CCCOCCC#N
unit.string: °C
bound.sign: =
melting point: -26.3
--
compound: Cc1cc(CCl)c(C)cc1CCl
unit.string: °C
bound.sign: =
melting point: 132
--
compound: CCCCCCN1CC(C(=O)O)CC1=O (stereo not drawn)
unit.string: °C
bound.sign: =
melting point: 42.5
